Where do these numbers come from? They come from paper PMC6052416.

Test system: HeLa (cervix adenoma cancer cell)
Experimental protocol: WST-1 cytotoxicity, HeLa
Assay type: cell-based, human
Condition description: WST-1, 48 h; read-out: IC50 HeLa 48 h
Measured property: pIC50
Expect pIC50 as a plain number equal to -log10 of the molar concentration.

Form: molecule = Cc1cccc(C=Nc2ccc(S(N)(=O)=O)cc2)c1O [Compound 3] ; pIC50 = 4.53

The molecule listed as NS(=O)(=O)c1ccc(CCN=Cc2cc(Br)ccc2O)cc1 [Compound 1] shows pIC50 equal to 4.73

Record summary for O=c1[nH]cc(F)c(=O)[nH]1 [Compound 5-FU, reference compound] : reported pIC50 = 4.51

get_value(item= Cc1ccc(C=Nc2ccc(S(N)(=O)=O)cc2)cc1 [Compound 5] , readout=pIC50) returns 3.74

Please fill in: pIC50 reported for COc1ccc(C=Nc2ccc(S(N)(=O)=O)cc2)cc1 [Compound 6] = 3.70

The recorded pIC50 for entry Cc1cccc(C=NCCc2ccc(S(N)(=O)=O)cc2)c1O [Compound 2] equals 4.30
